Target: Calcium-activated potassium channel subunit alpha-1 (Homo sapiens, UniProt Q12791)
Sequence (Q12791 whole entry): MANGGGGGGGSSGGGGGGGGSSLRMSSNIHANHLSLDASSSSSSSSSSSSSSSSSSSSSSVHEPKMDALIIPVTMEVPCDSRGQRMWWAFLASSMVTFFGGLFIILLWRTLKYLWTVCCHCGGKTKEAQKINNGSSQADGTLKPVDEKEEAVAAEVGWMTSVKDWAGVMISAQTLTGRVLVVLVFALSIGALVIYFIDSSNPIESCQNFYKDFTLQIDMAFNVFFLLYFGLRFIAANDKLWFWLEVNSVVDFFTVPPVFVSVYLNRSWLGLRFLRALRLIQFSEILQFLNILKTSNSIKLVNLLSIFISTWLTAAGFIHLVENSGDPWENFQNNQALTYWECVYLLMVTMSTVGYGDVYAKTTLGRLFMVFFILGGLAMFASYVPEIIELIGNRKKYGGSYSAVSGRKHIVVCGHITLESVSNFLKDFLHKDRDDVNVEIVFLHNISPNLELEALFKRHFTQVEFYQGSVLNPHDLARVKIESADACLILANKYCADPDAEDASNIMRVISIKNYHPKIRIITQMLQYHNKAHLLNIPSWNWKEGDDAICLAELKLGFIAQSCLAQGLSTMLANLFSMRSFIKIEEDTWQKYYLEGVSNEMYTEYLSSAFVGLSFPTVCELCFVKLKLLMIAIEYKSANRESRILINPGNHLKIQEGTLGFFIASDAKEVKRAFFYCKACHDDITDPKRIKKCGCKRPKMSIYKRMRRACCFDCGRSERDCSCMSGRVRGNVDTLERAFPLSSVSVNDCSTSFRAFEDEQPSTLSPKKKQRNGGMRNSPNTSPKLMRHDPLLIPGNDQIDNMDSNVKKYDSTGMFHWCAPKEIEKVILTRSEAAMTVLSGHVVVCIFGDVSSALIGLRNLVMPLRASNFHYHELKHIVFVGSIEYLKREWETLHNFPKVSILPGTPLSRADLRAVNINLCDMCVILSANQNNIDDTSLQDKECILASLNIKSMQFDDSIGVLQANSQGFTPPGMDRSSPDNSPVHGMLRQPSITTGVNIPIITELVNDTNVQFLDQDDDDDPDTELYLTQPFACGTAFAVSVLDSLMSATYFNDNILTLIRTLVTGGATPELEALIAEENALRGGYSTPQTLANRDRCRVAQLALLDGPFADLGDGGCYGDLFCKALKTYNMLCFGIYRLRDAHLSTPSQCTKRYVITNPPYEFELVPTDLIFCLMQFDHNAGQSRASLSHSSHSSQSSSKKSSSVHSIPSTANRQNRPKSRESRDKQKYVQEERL
Assay: Activation of BK channel-mediated vasorelaxation activity assessed as reduction in KCl-induced contractile tone
reported-metric: IC50 (µM)

>  <line-notation>
NC(=O)c1[nH]nnc1-n1c(=O)[nH]c2cc(-c3ccccc3)ccc21

>  <unit-of-measure>
µM

>  <numeric-value>
55

$$$$
>  <line-notation>
NC(=O)c1nn[nH]c1Nc1ccc(Cl)cc1[N+](=O)[O-]

>  <unit-of-measure>
µM

>  <numeric-value>
24.5

$$$$
>  <line-notation>
Cc1ccc(O)c(NC(=O)c2ccc(F)cc2)c1

>  <unit-of-measure>
µM

>  <numeric-value>
11.2

$$$$
>  <line-notation>
O=C(Nc1cc(Cl)ccc1O)c1cccc(Cl)c1

>  <unit-of-measure>
µM

>  <numeric-value>
11.7

$$$$
>  <line-notation>
O=C(Nc1cc(Cl)ccc1O)c1ccccc1F

>  <unit-of-measure>
µM

>  <numeric-value>
30.2

$$$$
>  <line-notation>
O=C(Nc1cc(Cl)ccc1O)c1ccccc1

>  <unit-of-measure>
µM

>  <numeric-value>
13.5

$$$$

[P] O=C(Nc1ccc(F)cc1[N+](=O)[O-])c1ccccc1O
[Q] COc1ccc([N+](=O)[O-])cc1NC(=O)c1ccccc1O
[R] O=C(Nc1ccc(C(F)(F)F)cc1[N+](=O)[O-])c1ccccc1O
[S] NC(=O)c1nn[nH]c1-n1nnc2cc(C(F)(F)F)ccc21
[T] Oc1ccc(Cl)cc1-n1cc(Cc2ccccc2)nn1
[in] Order by IC50, ascending. Give the labels in the order specified.
[out] T, Q, R, P, S
